assay: Cmax in rat at 10 mg/kg, po; assay type: ADME, organism-based; set-up: route oral, dose 10 mg/kg; details: in vivo
Below, each of the molecules is paired with its reported Cmax value.
Reply numerically in ng/mL, unit not repeated.

>  <MOLECULE>
N#Cc1cccc([C@@H](NCC2CC2)c2ccc(F)c(NC(=O)c3cc(C(F)(F)F)nn3-c3cccc(CN)c3)c2)c1 (stereo in doubt)

>  <RESULT_VALUE>
242

$$$$

Attention now turns to another entry.
Lookup result for NCc1cccc(-n2nc(C(F)(F)F)cc2C(=O)Nc2cc(C(NCC3CC3)c3ccccc3)ccc2F)c1 (single isomer, unassigned; (-)) ; measured Cmax: 133
